Molecular target: T1, AAV9 (adeno-associated virus 9)
T1 construct: also called adeno-associated virus serotype 9
Experiment: SPR, AAV amine-coupled to CM5 chip;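 note: nanobodies flowed as analyte at seven concentrations spanning 1–100 nM over immobilized AAV (500–800 RU), kinetic constants derived by fitting the binding curves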
Respond with yes (1) for koff values of 0.001 s⁻¹ and above, no (0) for values below.

A4-071 (VHH) VHH: VQLQESGGGAVQAGGSLRLSCAASGSTFSINTMGWYRQAPGKQRELVATVTRGGSTNYGDFVKGRFTISRDNAKNTVYLQMNTLRPEDTAVYYCHLDEVRQSSWTTSNLWGQGTQVTVSS	yes (1)
A4-058 (VHH) VHH: VQLQESGGGLVQPGGSLRLSCAASGSIFSINTMGWYRQAPAKQREIVATVTRDGSTNYAESVKGRFTISRDNAKNTVYLQMNSLRPEDTAVYYCHLDEVRQSTWTTSNLWGQGTQVTVSS	yes (1)
A4-065 (VHH) VHH: VQLQESGGGLVQSGGSLRLSCAASGRNFSLNTVGWYRQAPGKQRELVATVTRGGSTNYAGSVKGRFTISRDNAKNTVYLQMNSLRPEDTAVYYCHVDEVRESSWTTSNLWGQGTQVTVSS	yes (1)
A4-094 (VHH) VHH: VQLQESGGGLVQPGGSLRLSCVASGSIFVINTMGWYRQAPGKQRELVATVTRDGGTNYADSVKGRFTISRDNAKNTVYLQMNSLRPEDTAVYYCHIDEIRESSWTTSNLWGQGTQVTVSS	no (0)
A4-088 (VHH) VHH: VQLQESGGGLVQTGGSLRLSCAASGSRFSLNTMGWYRQAPGKQRELVAAVTRGGNTNYGDFVKGRFTISRDNAKNTVYLQMNSLRPEDTAVYYCHVDELRESSWTTSNLWGQGTQVTVSS	yes (1)

Lab note: next binder to report on.
Test whether the binder A4-052 (VHH) VHH: VQLQESGGGLVQPGGSLRLSCAASGSIFIINTMGWYRQAPGKQRELVAAVTRGGSTNYADSVKGRFTISRDNAKNTVYLQMNSLRPEDTAVYYCHVDEVRQSSWTTSNLWGQGTQVTVSS records koff of 0.001 s⁻¹ or higher.
no (0)
